Measured CMI values are reported for all entries that follow.
- Tested on: Serratia entomophila
- Experiment Summary: Bacterial growth inhibition test in Petri dish (solid medium), MIC
- Format: cell-based
- Test Settings: MIC extrapolated from inhibition diameter vs log10 concentration
Ends that are not written are not given here.

Substance	Display Unit	CMI
Composé 8: pseudopeptide du pic n° 8 de Xenorhabdus nematophilus F1; Famille 1: Lys Lys Lys Lys Lys Gly; 1066 Da; structure en Figure 2 (KKKKKG; also: pseudopeptide modifications)	µg/mL	30
Composé 5: pseudopeptide du pic n° 5 (HPLC, Figure 1) de Xenorhabdus nematophilus F1; Famille 1: Lys Lys Lys Lys Lys Gly; 1052 Da (KKKKKG; also: pseudopeptide modifications)	µg/mL	60
Composé 11: pseudopeptide du pic n° 11 de Xenorhabdus nematophilus F1; Famille 1: Lys Lys Lys Lys Lys Gly; 1080 Da; isomère de masse du pic 7 (KKKKKG; also: pseudopeptide modifications, not given here)	µg/mL	30
Composé 7: pseudopeptide du pic n° 7 de Xenorhabdus nematophilus F1; Famille 2: Lys Lys Lys Lys Arg Gly; 1080 Da; isomère de masse du pic 11 (KKKKRG; also: pseudopeptide modifications)	µg/mL	60
Composé 10: pseudopeptide du pic n° 10 de Xenorhabdus nematophilus F1; Famille 2: Lys Lys Lys Lys Arg Gly; 1094 Da; structure en Figure 3 (KKKKRG; also: pseudopeptide modifications, not given here)	µg/mL	15

* * *

Measured CMI values are reported for all entries that follow.
- Tested on: Proteus vulgaris CIP58.60
- Experiment Summary: Bacterial growth inhibition test in Petri dish (solid medium), MIC
- Type: cell-based
- Test Settings: MIC extrapolated from inhibition diameter vs log10 concentration
Ends that are not written are not given here.

Substance	CMI
Composé 5: pseudopeptide du pic n° 5 (HPLC, Figure 1) de Xenorhabdus nematophilus F1; Famille 1: Lys Lys Lys Lys Lys Gly; 1052 Da (KKKKKG; also: pseudopeptide modifications)	200 µg/mL
Composé 7: pseudopeptide du pic n° 7 de Xenorhabdus nematophilus F1; Famille 2: Lys Lys Lys Lys Arg Gly; 1080 Da; isomère de masse du pic 11 (KKKKRG; also: pseudopeptide modifications)	100 µg/mL
Composé 10: pseudopeptide du pic n° 10 de Xenorhabdus nematophilus F1; Famille 2: Lys Lys Lys Lys Arg Gly; 1094 Da; structure en Figure 3 (KKKKRG; also: pseudopeptide modifications, not given here)	200 µg/mL

* * *

- Tested on: Staphylococcus aureus
- Experiment Summary: Bacterial growth inhibition test in Petri dish (solid medium), MIC
- Format: cell-based
- Test Settings: MIC extrapolated from inhibition diameter vs log10 concentration
Ends that are not written are not given here.
Measured CMI values are reported for all entries that follow.

Substance	CMI [µg/mL]
Composé 8: pseudopeptide du pic n° 8 de Xenorhabdus nematophilus F1; Famille 1: Lys Lys Lys Lys Lys Gly; 1066 Da; structure en Figure 2 (KKKKKG; also: pseudopeptide modifications)	15
Composé 7: pseudopeptide du pic n° 7 de Xenorhabdus nematophilus F1; Famille 2: Lys Lys Lys Lys Arg Gly; 1080 Da; isomère de masse du pic 11 (KKKKRG; also: pseudopeptide modifications)	15

* * *

- System: Proteus vulgaris CIP58.60
- Experiment Summary: Bacterial growth inhibition test in Petri dish (solid medium), MIC
- Type: cell-based
- Test Settings: MIC extrapolated from inhibition diameter vs log10 concentration
Ends that are not written are not given here.
Measured CMI values are reported for all entries that follow.
Assay Metric: CMI (µg/mL)

Substance	Assay Metric	Obs Value
Composé 8: pseudopeptide du pic n° 8 de Xenorhabdus nematophilus F1; Famille 1: Lys Lys Lys Lys Lys Gly; 1066 Da; structure en Figure 2 (KKKKKG; also: pseudopeptide modifications)	CMI	100
Composé 11: pseudopeptide du pic n° 11 de Xenorhabdus nematophilus F1; Famille 1: Lys Lys Lys Lys Lys Gly; 1080 Da; isomère de masse du pic 7 (KKKKKG; also: pseudopeptide modifications, not given here)	CMI	200

* * *

- Test system: Staphylococcus aureus
- Experiment Summary: Bacterial growth inhibition test in Petri dish (solid medium), MIC
- Assay type: cell-based
- Test Settings: MIC extrapolated from inhibition diameter vs log10 concentration
Ends that are not written are not given here.
Measured CMI values are reported for all entries that follow.
Assay Metric: CMI

Substance	Obs Value
Composé 10: pseudopeptide du pic n° 10 de Xenorhabdus nematophilus F1; Famille 2: Lys Lys Lys Lys Arg Gly; 1094 Da; structure en Figure 3 (KKKKRG; also: pseudopeptide modifications, not given here)	7,5 µg/ml
Composé 11: pseudopeptide du pic n° 11 de Xenorhabdus nematophilus F1; Famille 1: Lys Lys Lys Lys Lys Gly; 1080 Da; isomère de masse du pic 7 (KKKKKG; also: pseudopeptide modifications, not given here)	7,5 µg/ml
Composé 5: pseudopeptide du pic n° 5 (HPLC, Figure 1) de Xenorhabdus nematophilus F1; Famille 1: Lys Lys Lys Lys Lys Gly; 1052 Da (KKKKKG; also: pseudopeptide modifications)	7,5 µg/ml
